# System: Escherichia coli TOP10;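 note: peptides expressed intracellularly from a pBAD plasmid library in pooled LB shake-flask culture, induced with 0.3% L-arabinose, DNA abundance read by NGS, three biological replicates, DESeq2 with apeglm shrinkage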
# assay: shrunken log2 fold change of peptide-encoding DNA abundance (4.5 h post-induction vs induction); higher = less antimicrobial activity (less host growth inhibition)
# condition notes: time post-induction: 4.5 h; library: site-saturation at positions 5, 18, 19, 20
Kindly return label 1 if reported shrunken log2 fold change is no lower than -0.07; return label 0 if it is lower.

| biosequence | assigned category |
| --- | --- |
| RRIRCRPPRLPRPRPRPWSPPRP | label 1 |
| RRIRDRPPRLPRPRPRPEALPRP | label 1 |
| RRIRIRPPRLPRPRPRPMCNPRP | label 0 |
| RRIRHRPPRLPRPRPRPKKNPRP | label 0 |
| RRIRYRPPRLPRPRPRPVYWPRP | label 0 |
| RRIRLRPPRLPRPRPRPMFLPRP | label 1 |
| RRIRMRPPRLPRPRPRPDSTPRP | label 1 |
| RRIRKRPPRLPRPRPRPKEVPRP | label 1 |
| RRIRTRPPRLPRPRPRPKMHPRP | label 0 |
| RRIRQRPPRLPRPRPRPCHNPRP | label 1 |
| RRIRTRPPRLPRPRPRPGHSPRP | label 1 |
| RRIRKRPPRLPRPRPRPRTWPRP | label 1 |
| RRIRMRPPRLPRPRPRPLFAPRP | label 1 |
| RRIRPRPPRLPRPRPRPAINPRP | label 0 |
| RRIRLRPPRLPRPRPRPGSLPRP | label 0 |
| RRIRARPPRLPRPRPRPQPSPRP | label 1 |
| RRIRGRPPRLPRPRPRPCFLPRP | label 1 |
| RRIRVRPPRLPRPRPRPPSIPRP | label 1 |
| RRIRWRPPRLPRPRPRPDRTPRP | label 1 |
| RRIRQRPPRLPRPRPRPTWMPRP | label 0 |
| RRIRLRPPRLPRPRPRPNSTPRP | label 0 |
| RRIRQRPPRLPRPRPRPRADPRP | label 1 |
| RRIRDRPPRLPRPRPRPYHLPRP | label 1 |
| RRIRRRPPRLPRPRPRPCSPPRP | label 0 |
